B1: library; numbered along this chain (parent)
chain: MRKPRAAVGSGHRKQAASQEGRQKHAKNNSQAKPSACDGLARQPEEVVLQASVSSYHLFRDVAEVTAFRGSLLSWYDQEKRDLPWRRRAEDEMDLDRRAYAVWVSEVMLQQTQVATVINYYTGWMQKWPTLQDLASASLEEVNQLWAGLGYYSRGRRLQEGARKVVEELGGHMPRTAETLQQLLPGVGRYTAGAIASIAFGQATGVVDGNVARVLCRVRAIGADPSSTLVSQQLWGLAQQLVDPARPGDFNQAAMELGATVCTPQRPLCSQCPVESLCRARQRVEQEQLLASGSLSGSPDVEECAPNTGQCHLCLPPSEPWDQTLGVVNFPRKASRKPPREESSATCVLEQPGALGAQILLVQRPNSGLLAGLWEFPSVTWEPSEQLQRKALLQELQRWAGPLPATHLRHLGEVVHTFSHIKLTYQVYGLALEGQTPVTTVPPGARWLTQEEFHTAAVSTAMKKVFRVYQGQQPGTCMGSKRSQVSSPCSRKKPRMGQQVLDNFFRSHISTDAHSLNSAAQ

# Variants of: B1
# PROCEDURE TEXT: 8OG:A repair function score (normalized; synonymous = 0, nonsense = -1) (normalized log-likelihood score); higher = more repair activity (WT-like);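 also: cells sorted at 72 h after reporter transfection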
# APPLIED CONDITIONS: with 8OG:A DNA repair reporter (GFP) in HEK-293 MUTYH KO cells
The threshold is inclusive: 8OG:A repair function score of exactly -0.04 counts as 1.0; values below receive 0.0.

# SEQUENCE VARIANT, CLASS NAME
rows = [
    ("G258Y", 0.0),
    ("G293E", 1.0),
    ("E167R", 1.0),
    ("S270Q", 1.0),
    ("P129R", 0.0),
    ("V65A", 0.0),
    ("V415T", 0.0),
    ("N503I", 1.0),
    ("E452Y", 0.0),
    ("G222T", 0.0),
    ("R332L", 0.0),
    ("C262V", 0.0),
    ("V465I", 0.0),
    ("V53T", 1.0),
    ("P338C", 0.0),
    ("G193C", 1.0),
    ("W235V", 0.0),
    ("G186D", 0.0),
    ("V165N", 0.0),
    ("C477T", 1.0),
    ("V348I", 0.0),
    ("A41I", 1.0),
]
